target: AGO2 L192P (Homo sapiens, UniProt Q9UKV8 1-859, L192P;S387D;S824A;S828D;S831D;S834A); experiment: RNA Bind-n-Seq (nitrocellulose filter binding and sequencing); miR-122 guide loaded in AGO2; 60 min incubation; 30 mM Tris pH 8.0, 100 mM potassium acetate, 2 mM magnesium acetate, 0.5 mM TCEP, 0.005% NP-40, 0.01 mg/ml yeast tRNA; 3 nM AGO2-miR-122, 100 nM RNA library; 60; high values mean tight binding; settings: protein: recombinant; tags: His6 (N-terminal, pFastBac HTA)
Sequence (Q9UKV8 whole entry L192P/S387D/S824A/S828D/S831D/S834A): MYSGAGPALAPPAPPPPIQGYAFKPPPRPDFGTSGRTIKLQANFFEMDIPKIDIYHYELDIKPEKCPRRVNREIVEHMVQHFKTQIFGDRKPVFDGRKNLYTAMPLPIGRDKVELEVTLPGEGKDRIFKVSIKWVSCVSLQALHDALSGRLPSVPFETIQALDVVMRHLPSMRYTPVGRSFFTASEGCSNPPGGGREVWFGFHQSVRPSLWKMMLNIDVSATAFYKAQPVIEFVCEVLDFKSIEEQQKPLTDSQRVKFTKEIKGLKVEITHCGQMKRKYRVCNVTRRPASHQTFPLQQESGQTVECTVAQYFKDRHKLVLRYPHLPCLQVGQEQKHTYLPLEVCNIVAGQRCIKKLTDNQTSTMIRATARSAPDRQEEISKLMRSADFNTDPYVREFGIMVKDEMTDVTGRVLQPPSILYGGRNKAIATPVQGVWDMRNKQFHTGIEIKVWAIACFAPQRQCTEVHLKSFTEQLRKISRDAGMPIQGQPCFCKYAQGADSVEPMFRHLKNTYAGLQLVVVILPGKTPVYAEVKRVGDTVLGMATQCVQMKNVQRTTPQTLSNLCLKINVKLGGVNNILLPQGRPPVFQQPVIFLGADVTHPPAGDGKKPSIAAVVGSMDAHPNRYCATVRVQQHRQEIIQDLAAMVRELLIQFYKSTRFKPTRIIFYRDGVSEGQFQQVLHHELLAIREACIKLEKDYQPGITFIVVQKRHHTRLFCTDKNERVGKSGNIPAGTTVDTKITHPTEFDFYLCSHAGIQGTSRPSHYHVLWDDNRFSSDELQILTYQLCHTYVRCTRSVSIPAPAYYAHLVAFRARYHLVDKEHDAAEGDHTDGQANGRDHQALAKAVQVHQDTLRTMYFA
Recorded binding signal, one value per entry.

| Binder | binding signal |
| --- | --- |
| ACATCTCA (ssRNA, constant regions annealed to DNA blockers; guide miR-122 5' phosphate) RNA 1: GAGUUCUACAGUCCGACGAUCCCAACACAUCUCACACCUGGAAUUCUCGGGUGCCAA RNA 2: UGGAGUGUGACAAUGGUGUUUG DNA 1: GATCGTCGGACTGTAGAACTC DNA 2: TTGGCACCCGAGAATTCCA | 0.924 fold enrichment over input |

Input: I would be grateful if you could share the reported binding signal for ACATTTCG (ssRNA, constant regions annealed to DNA blockers; guide miR-122 5' phosphate) RNA 1: GAGUUCUACAGUCCGACGAUCCCAACACAUUUCGCACCUGGAAUUCUCGGGUGCCAA RNA 2: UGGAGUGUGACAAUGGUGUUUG DNA 1: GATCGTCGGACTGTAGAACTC DNA 2: TTGGCACCCGAGAATTCCA .
Output: 0.421 fold enrichment over input

Input: Can you look up the measured binding signal of ACGTTCTG (ssRNA, constant regions annealed to DNA blockers; guide miR-122 5' phosphate) RNA 1: GAGUUCUACAGUCCGACGAUCCCAACACGUUCUGCACCUGGAAUUCUCGGGUGCCAA RNA 2: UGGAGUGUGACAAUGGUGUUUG DNA 1: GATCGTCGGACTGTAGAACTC DNA 2: TTGGCACCCGAGAATTCCA for me?
Output: 0.334 fold enrichment over input

Input: What value of binding signal has been reported for the following binder? GTGCTCTA (ssRNA, constant regions annealed to DNA blockers; guide miR-122 5' phosphate) RNA 1: GAGUUCUACAGUCCGACGAUCCCAACGUGCUCUACACCUGGAAUUCUCGGGUGCCAA RNA 2: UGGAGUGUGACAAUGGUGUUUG DNA 1: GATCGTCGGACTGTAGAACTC DNA 2: TTGGCACCCGAGAATTCCA
Output: 0.463 fold enrichment over input
